Exercise: for every item that follows, state its recorded IC50.
Test system: K562-tax (human myeloid leukaemia resistant to taxol)
protocol-notes: MTT cytotoxic test, K562-tax
Format: cell-based
assay-conditions: K562-TAX cells, mean (x); read-out: Cytotoxic and antiproliferation activity MTT test (IC50, μM) K562-TAX x
The reply should be a number in µM, with the unit left off.

Q: Item under review: O=c1c(O)c(-c2ccc(NCCCCO)c([N+](=O)[O-])c2)[nH]c2ccccc12 . Reported IC50?
Result: 8.6

Q: And CCN(CC)CCn1cnc2cc(-c3[nH]c4ccccc4c(=O)c3O)ccc21 ?
Result: 6.5

Q: And O=c1c(O)c(-c2ccc(Cl)c([N+](=O)[O-])c2)[nH]c2ccccc12 ?
Result: 3.2

Q: And O=c1c(O)c(-c2ccc3c(c2)ncn3CCSCCO)[nH]c2ccccc12 ?
Result: 4.5

Q: And CCCCCCn1cnc2cc(-c3[nH]c4ccccc4c(=O)c3O)ccc21 ?
Result: 35
